system: 317291-083-R-J1-PDC complex spheroid growth; assay: Anticancer human tumor 317291-083-R-J1-PDC patient-derived soft tissue sarcoma cell line growth inhibition [Asc]; settings: second compound 0.316 µM; first compound 0.0316 µM; stronger effect = lower value;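 note: compound exposure lasted seven days after spheroids formed for three days; 100% = DMSO vehicle control wells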
Kindly supply the reported viability, T/C values for the records listed here.
Use % as the unit, but write only the number.

[in] Fill in viability, T/C for C#Cc1c(F)ccc2cc(O)cc(-c3ncc4c(N5CC6CCC(C5)N6)nc(OCC56CCCN5CC(F)C6)nc4c3F)c12 (stereo unspecified) + CNC(C)C(=O)NC1CN(S(=O)(=O)c2cccc(S(=O)(=O)N3CCC4CCC(C(=O)NC(c5ccccc5)c5ccccc5)N4C(=O)C(NC(=O)C(C)NC)C3)c2)CCC2CCC(C(=O)NC(c3ccccc3)c3ccccc3)N2C1=O tested with 317291-083-R-J1-PDC complex spheroid growth.
[out] 42.9

[in] Fill in viability, T/C for CNC(C)C(=O)NC1CN(S(=O)(=O)c2cccc(S(=O)(=O)N3CCC4CCC(C(=O)NC(c5ccccc5)c5ccccc5)N4C(=O)C(NC(=O)C(C)NC)C3)c2)CCC2CCC(C(=O)NC(c3ccccc3)c3ccccc3)N2C1=O (stereo unspecified) + Cc1c(S(C)(=O)=O)c(-c2cc(F)cc(N3CCN(c4ccc(NS(=O)(=O)c5ccc(NC(CCN6CCC(C(=O)OCCCP(=O)(O)O)CC6)CSc6ccccc6)c(S(=O)(=O)C(F)(F)F)c5)cc4)CC3)c2)c(-c2ccc(Cl)cc2)n1C(C)C tested with 317291-083-R-J1-PDC complex spheroid growth.
[out] 74.5

[in] Fill in viability, T/C for CCN1CCN(Cc2ccc(Nc3ncc(F)c(-c4cc(F)c5nc(C)n(C(C)C)c5c4)n3)nc2)CC1 + Cc1c(S(C)(=O)=O)c(-c2cc(F)cc(N3CCN(c4ccc(NS(=O)(=O)c5ccc(NC(CCN6CCC(C(=O)OCCCP(=O)(O)O)CC6)CSc6ccccc6)c(S(=O)(=O)C(F)(F)F)c5)cc4)CC3)c2)c(-c2ccc(Cl)cc2)n1C(C)C tested with 317291-083-R-J1-PDC complex spheroid growth.
[out] 77.8

[in] Fill in viability, T/C for COc1c(OCCCN2CCOCC2)ccc2c3n(c(=NC(=O)c4cnc(N)nc4)nc12)CCN3 + Cc1c(S(C)(=O)=O)c(-c2cc(F)cc(N3CCN(c4ccc(NS(=O)(=O)c5ccc(NC(CCN6CCC(C(=O)OCCCP(=O)(O)O)CC6)CSc6ccccc6)c(S(=O)(=O)C(F)(F)F)c5)cc4)CC3)c2)c(-c2ccc(Cl)cc2)n1C(C)C tested with 317291-083-R-J1-PDC complex spheroid growth.
[out] 69.7

[in] Fill in viability, T/C for C=C(F)C(=O)N1CCN(c2nc(OCC3CCCN3C)nc3c2CCN(c2cccc4cccc(Cl)c24)C3)CC1CC#N (stereo unspecified) + CNC(C)C(=O)NC1CN(S(=O)(=O)c2cccc(S(=O)(=O)N3CCC4CCC(C(=O)NC(c5ccccc5)c5ccccc5)N4C(=O)C(NC(=O)C(C)NC)C3)c2)CCC2CCC(C(=O)NC(c3ccccc3)c3ccccc3)N2C1=O tested with 317291-083-R-J1-PDC complex spheroid growth.
[out] 38.1

[in] Fill in viability, T/C for O=C(c1cc(Cc2n[nH]c(=O)c3ccccc23)ccc1F)N1CCN(C(=O)C2CC2)CC1 + Cc1c(S(C)(=O)=O)c(-c2cc(F)cc(N3CCN(c4ccc(NS(=O)(=O)c5ccc(NC(CCN6CCC(C(=O)OCCCP(=O)(O)O)CC6)CSc6ccccc6)c(S(=O)(=O)C(F)(F)F)c5)cc4)CC3)c2)c(-c2ccc(Cl)cc2)n1C(C)C tested with 317291-083-R-J1-PDC complex spheroid growth.
[out] 82.8
